biological target: human TMEM16A (TMEM16Aabc variant) (Homo sapiens, UniProt Q5XXA6, DEL476-501, form not given); assay: Automated whole-cell patch clamp (Qpatch) TMEM16A potentiator assay in FRT cells stably expressing human TMEM16A; settings: calculated EC50, Qpatch TMEM16A current at +70 mV
Sequence (Q5XXA6 with tags, fused parts or gaps DEL476-501): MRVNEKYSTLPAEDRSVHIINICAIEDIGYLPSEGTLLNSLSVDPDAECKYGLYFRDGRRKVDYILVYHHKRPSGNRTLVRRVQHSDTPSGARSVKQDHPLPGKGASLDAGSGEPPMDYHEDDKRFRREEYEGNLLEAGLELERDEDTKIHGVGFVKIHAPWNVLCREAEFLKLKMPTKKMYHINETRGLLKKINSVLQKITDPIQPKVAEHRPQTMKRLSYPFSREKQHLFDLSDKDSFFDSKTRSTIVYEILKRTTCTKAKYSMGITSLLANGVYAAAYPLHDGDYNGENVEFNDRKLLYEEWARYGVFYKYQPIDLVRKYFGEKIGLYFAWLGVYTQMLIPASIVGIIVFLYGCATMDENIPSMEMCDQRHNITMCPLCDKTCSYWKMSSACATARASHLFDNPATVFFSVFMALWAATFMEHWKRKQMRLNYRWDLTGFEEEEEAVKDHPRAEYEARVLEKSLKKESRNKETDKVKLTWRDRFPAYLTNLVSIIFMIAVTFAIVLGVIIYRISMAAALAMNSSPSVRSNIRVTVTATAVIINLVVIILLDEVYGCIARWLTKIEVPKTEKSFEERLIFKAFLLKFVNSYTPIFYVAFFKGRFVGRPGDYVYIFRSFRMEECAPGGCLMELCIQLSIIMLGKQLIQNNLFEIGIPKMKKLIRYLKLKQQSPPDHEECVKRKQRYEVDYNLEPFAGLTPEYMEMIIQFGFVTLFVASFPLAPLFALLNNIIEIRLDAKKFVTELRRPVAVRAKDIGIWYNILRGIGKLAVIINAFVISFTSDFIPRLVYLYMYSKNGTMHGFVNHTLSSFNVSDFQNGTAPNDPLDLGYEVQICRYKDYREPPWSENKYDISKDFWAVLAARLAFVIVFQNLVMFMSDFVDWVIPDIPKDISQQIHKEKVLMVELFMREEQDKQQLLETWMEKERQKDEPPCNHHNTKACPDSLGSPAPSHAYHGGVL
Provide the reported pEC50 of each item.
Answer as the number alone; pEC50 is minus log10 of concentration in mol/L.

Ask | What pEC50 value was documented for this compound, `C#CC1(NC(=O)c2cc(NC(=O)Cc3cc(Cl)ccc3O)ccn2)CCCCC1` ?
Reply | 8.00

Ask | Also `COC(=O)c1ccc(O)c(CC(=O)Nc2cccc(C(=O)NC(C)(C)C)c2)c1` , if possible.
Reply | 5.85

Ask | Also `COc1ccccc1CNC(=O)Nc1ccnc(C(=O)NC(C)(C)C)c1` , if possible.
Reply | 6.33

Ask | Also CC(C)(C)NC(=O)c1cc(NC(=O)C2CCc3c(Cl)ccc(O)c32)ccn1 (single isomer, unassigned) [Example 57a] , if possible.
Reply | 6.29

Ask | Also `CC(C)(C)NC(=O)c1cc(NC(=O)Cc2ccc(C(C)(C)C)c(N)c2)ccn1` , if possible.
Reply | 6.66

Ask | Also `CC(C)(C)NC(=O)c1cc(NC(=O)Cc2ccc(C(C)(C)C)cc2O)ccn1` , if possible.
Reply | 6.92

Ask | Also `C#CC(C)(C)NC(=O)c1cc(NC(=O)Cc2ccc(Cl)c(O)c2)ccn1` , if possible.
Reply | 8.00

Ask | Also `CCC(C)(C)NC(=O)c1cccc(NC(=O)Cc2ccc(F)cc2O)c1` , if possible.
Reply | 6.34

----------
target: human TMEM16A (TMEM16Aabc variant) (Homo sapiens, UniProt Q5XXA6, DEL476-501, form not given); assay: Automated whole-cell patch clamp (Qpatch) TMEM16A potentiator assay in FRT cells stably expressing human TMEM16A; assay type: cell-based; settings: 3.33 μM solution of test compound; percentage increase of baseline TMEM16A current
Assay Metric: % Potentiation @ 3.33 μM Avg (%)
// return numeric value only (unit: %, not printed)

Ask | What % Potentiation @ 3.33 μM Avg value was documented for this compound, `CC(C)(C#N)NC(=O)c1cc(NC(=O)C2CCCCC2)ccn1` ?
Reply | 41

Ask | Also `CC(C)(C)NC(=O)c1cc(NC(=O)Cc2ccccc2C(F)F)ccn1` , if possible.
Reply | 110

Ask | Also `C#CC(C)(C)NC(=O)c1cc(NC(=O)Cc2cccc3[nH]ncc23)ccn1` , if possible.
Reply | 211

Value source: patent US20200361871A1
